Hey, just so you know, these numbers are from ChEMBL document CHEMBL1697781.

Test system: Hepatotoxicity
ASSAY NAME: FDA HLAED, lactate dehydrogenase (LDH) increase
RECORDED CONDITIONS: human

{"columns": ["COMPOUND", "LDH Increase - Activity Score"],
 "data": [
  ["CC(C)C[C@H]1C(=O)N2CCC[C@H]2[C@]2(O)O[C@](NC(=O)[C@@H]3C=C4c5cccc6[nH]c(Br)c(c56)C[C@H]4N(C)C3)(C(C)C)C(=O)N12", "Inactive"],
  ["CCOC(=O)[C@H](CCc1ccccc1)N[C@@H](C)C(=O)N1CCC[C@H]1C(=O)O", "Inactive"],
  ["CC(=O)OCC(=O)[C@@]12OC3(CCCC3)O[C@@H]1C[C@H]1[C@@H]3CCC4=CC(=O)C=C[C@]4(C)[C@@]3(F)[C@@H](O)C[C@@]12C [AMCINONIDE]", "Inactive"],
  ["CCC(=O)O[C@H]1CC[C@H]2[C@@H]3CCC4=CC(=O)CC[C@]4(C)[C@H]3CC[C@]12C [TESTOSTERONE PROPIONATE]", "Inactive"],
  ["COC(=O)C1=C(C)NC(C)=C(C(=O)OCC(C)C)C1c1ccccc1[N+](=O)[O-] (centres undefined)", "Inactive"],
  ["CNS(=O)(=O)Cc1ccc2[nH]cc(CCN(C)C)c2c1", "Inactive"],
  ["CC(C(=O)O)c1cccc(C(=O)c2ccccc2)c1 (centres undefined)", "Inactive"],
  ["COc1cc2nc(N3CCN(C(=O)C4CCCO4)CC3)nc(N)c2cc1OC (centres undefined)", "Inactive"],
  ["CC(C)N1CCN(c2ccc(OCC3COC(Cn4cncn4)(c4ccc(Cl)cc4Cl)O3)cc2)CC1 (centres undefined)", "Inactive"],
  ["CC(C)[C@H](N)C(=O)OCCOCn1cnc2c(=O)[nH]c(N)nc21", "Inactive"],
  ["CCOC(=O)c1ccc(C#Cc2ccc3c(c2)C(C)(C)CCS3)nc1", "Inactive"],
  ["CC1(C)O[C@@H]2[C@@H](CO[C@@]3(COS(N)(=O)=O)OC(C)(C)O[C@@H]23)O1 [TOPIRAMATE]", "Inactive"],
  ["CCOC(=O)N1CCC(=C2c3ccc(Cl)cc3CCc3cccnc32)CC1", "Inactive"],
  ["Cc1cc2c(s1)Nc1ccccc1N=C2N1CCN(C)CC1", "Inactive"],
  ["CN(C)C(=N)N=C(N)N", "Inactive"],
  ["CCc1cccc2c3c([nH]c12)C(CC)(CC(=O)O)OCC3 (centres undefined)", "Inactive"],
  ["O=C1CC2(CCCC2)CC(=O)N1CCCCN1CCN(c2ncccn2)CC1", "Inactive"],
  ["COC(=O)C1=C(C)NC(C)=C(C(=O)OCCN(C)Cc2ccccc2)C1c1cccc([N+](=O)[O-])c1 (centres undefined)", "Inactive"],
  ["O=C(O)[C@@H](S)[C@@H](S)C(=O)O", "Inactive"],
  ["CC(C)(O/N=C(\\C(=O)N[C@@H]1C(=O)N2C(C(=O)[O-])=C(C[n+]3ccccc3)CS[C@H]12)c1csc(N)n1)C(=O)O", "Inactive"],
  ["FC(F)OC(Cl)C(F)(F)F (centres undefined)", "Inactive"],
  ["Cn1nnnc1SCC1=C(C(=O)[O-])N2C(=O)[C@@H](NC(=O)[C@H](OC=O)c3ccccc3)[C@H]2SC1.[Na+] [CEFAMANDOLE NAFATE]", "Inactive"],
  ["O=c1n(CCCN2CCN(c3cccc(Cl)c3)CC2)nc2ccccn12", "Inactive"],
  ["O=C1CN=C(c2ccccc2)c2cc(Cl)ccc2N1CC1CC1", "Inactive"],
  ["Nc1ccn([C@@H]2CS[C@H](CO)O2)c(=O)n1", "Inactive"],
  ["Cn1c(=O)c2[nH]cnc2n(C)c1=O.O", "Inactive"],
  ["CCCCCCCCCCC(=O)O[C@H]1CC[C@H]2[C@@H]3CCc4cc(O)ccc4[C@H]3CC[C@]12C [ESTRADIOL UNDECYLATE]", "Inactive"],
  ["CC1(C)C(C=C(Cl)Cl)C1C(=O)OCc1cccc(Oc2ccccc2)c1 (centres undefined)", "Inactive"],
  ["CC(C)/N=c1\\cc2n(-c3ccc(Cl)cc3)c3ccccc3nc-2cc1Nc1ccc(Cl)cc1", "Inactive"],
  ["C[C@@]12CCCCC[C@@H](Cc3ccc(O)cc31)[C@@H]2N", "Inactive"],
  ["N=C(N)N/N=C/c1c(Cl)cccc1Cl", "Inactive"],
  ["CCCCC[C@H](O)/C=C/[C@@H]1[C@H]2C/C(=C/CCCC(=O)O)O[C@H]2C[C@H]1O", "Inactive"],
  ["CC(=O)Oc1c(C)cc(OCC(O)CNC(C)C)c(C)c1C (centres undefined)", "Inactive"]
]}
